Value source: patent US10457654B2

// reported IC50 per item
molecular target: hNav1.7 (Homo sapiens (Human)); assay: Tritiated compound binding to membranes from cells expressing hNav1.7 and the β1 subunit, modified protocol (LBA, Ex. 243B); settings: 300 pM [3H]compound, room temperature, read-out: Nav1.7 LBA (Ex. 243B) IC50
Sequence (Q15858 whole entry, looked up): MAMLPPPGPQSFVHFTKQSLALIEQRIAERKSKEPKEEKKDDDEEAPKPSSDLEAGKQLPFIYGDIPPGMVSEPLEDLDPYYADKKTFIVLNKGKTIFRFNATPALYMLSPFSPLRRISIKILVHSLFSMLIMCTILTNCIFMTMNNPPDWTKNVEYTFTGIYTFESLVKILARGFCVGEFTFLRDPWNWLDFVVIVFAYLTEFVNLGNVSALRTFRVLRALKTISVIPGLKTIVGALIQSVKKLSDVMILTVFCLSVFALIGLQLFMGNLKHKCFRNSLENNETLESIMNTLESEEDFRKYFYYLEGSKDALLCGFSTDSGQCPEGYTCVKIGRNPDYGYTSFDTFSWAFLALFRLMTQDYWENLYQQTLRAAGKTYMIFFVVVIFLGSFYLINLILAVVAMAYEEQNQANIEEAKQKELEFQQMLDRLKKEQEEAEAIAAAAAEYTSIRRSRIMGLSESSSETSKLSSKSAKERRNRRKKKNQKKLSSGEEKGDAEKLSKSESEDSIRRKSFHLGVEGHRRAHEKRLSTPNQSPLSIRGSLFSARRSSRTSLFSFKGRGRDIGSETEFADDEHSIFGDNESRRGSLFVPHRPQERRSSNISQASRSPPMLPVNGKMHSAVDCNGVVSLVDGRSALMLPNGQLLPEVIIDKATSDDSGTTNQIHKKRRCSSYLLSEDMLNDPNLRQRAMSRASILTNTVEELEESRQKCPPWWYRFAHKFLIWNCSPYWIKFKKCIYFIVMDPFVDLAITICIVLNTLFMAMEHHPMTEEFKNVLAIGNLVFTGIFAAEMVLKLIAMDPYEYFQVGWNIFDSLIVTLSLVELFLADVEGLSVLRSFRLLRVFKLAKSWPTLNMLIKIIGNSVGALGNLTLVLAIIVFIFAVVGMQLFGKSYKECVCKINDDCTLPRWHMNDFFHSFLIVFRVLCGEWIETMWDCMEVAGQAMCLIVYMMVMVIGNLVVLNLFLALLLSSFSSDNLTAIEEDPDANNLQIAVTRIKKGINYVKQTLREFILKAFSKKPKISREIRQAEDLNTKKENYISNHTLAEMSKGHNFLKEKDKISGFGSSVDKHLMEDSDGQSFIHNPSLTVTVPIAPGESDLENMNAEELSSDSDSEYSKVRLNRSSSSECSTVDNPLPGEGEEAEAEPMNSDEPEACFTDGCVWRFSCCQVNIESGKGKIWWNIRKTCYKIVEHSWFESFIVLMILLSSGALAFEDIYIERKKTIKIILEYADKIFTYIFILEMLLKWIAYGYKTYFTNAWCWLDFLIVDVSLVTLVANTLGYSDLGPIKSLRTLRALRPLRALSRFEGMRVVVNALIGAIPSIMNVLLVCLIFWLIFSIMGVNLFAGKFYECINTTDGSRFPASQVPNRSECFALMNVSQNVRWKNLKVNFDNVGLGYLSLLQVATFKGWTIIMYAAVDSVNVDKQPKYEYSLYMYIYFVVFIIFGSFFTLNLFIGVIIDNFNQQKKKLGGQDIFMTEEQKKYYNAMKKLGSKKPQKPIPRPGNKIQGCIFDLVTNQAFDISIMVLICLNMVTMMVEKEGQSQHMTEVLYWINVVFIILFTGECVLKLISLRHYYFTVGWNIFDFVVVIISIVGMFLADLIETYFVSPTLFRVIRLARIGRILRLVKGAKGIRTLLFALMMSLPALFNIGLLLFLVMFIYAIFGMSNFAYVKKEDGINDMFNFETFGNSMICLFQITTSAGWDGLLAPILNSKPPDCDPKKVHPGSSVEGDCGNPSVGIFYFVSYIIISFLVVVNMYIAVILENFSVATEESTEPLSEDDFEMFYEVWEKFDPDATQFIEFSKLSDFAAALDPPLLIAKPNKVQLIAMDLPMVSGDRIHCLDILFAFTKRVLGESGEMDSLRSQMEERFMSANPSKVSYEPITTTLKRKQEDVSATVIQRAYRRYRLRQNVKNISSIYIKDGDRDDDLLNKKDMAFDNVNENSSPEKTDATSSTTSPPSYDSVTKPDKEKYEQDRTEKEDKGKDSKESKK
Sequence (Q07699 whole entry partner, looked up): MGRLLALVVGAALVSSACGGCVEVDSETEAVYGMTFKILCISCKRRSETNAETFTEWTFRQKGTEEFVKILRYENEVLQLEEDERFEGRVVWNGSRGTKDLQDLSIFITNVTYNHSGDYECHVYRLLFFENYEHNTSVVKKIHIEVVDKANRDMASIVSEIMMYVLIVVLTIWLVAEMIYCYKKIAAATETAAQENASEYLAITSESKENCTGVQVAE
Output should be the measured figure followed by the unit it is expressed in.

Worked cases, IC50 given:
CC(=O)N1CC(N(C)[C@H]2CCCC[C@@H]2Nc2cc(F)c(S(=O)(=O)Nc3nccs3)cc2Cl)C1 :: 0.305 µM
CN(C)[C@H]1CCC(c2cccc(C(F)(F)F)c2)C[C@@H]1Nc1cc(F)c(S(=O)(=O)Nc2ccncn2)cc1Cl (stereo in doubt) [Example 120] :: 0.0263 µM

For reference, reported IC50 for CN(C)[C@@H]1CC2C(C[C@H]1Nc1cc(F)c(S(=O)(=O)Nc3nccs3)cc1Cl)C2(F)F (stereo in doubt) [Example 208] stands at 0.0467 µM

* * *

Biological target: hNav1.7 (Homo sapiens (Human))
Test: Patch voltage clamp electrophysiology assay (EP), Syncropatch 384PE, CHO cells expressing Nav1.7
Format: cell-based
Conditions: holding potential -50 mV; […] compound incubation; read-out: EP_SP hNav1.7 (Ex. 243B) IC50
Description: Electrophysiological Assay (EP) (In Vitro Assay) […] For voltage protocol, an holding potential of −50 mV is applied during the whole experiment. […] A second depolarizing step is applied from −150 mV to −10 mV for 10 ms, where currents were measured to derive blocking effects of compounds. Inhibition is determined based on 7.5 min of compound incubation.
Sequence (Q15858 other isoform, or with tags, fused parts or gaps): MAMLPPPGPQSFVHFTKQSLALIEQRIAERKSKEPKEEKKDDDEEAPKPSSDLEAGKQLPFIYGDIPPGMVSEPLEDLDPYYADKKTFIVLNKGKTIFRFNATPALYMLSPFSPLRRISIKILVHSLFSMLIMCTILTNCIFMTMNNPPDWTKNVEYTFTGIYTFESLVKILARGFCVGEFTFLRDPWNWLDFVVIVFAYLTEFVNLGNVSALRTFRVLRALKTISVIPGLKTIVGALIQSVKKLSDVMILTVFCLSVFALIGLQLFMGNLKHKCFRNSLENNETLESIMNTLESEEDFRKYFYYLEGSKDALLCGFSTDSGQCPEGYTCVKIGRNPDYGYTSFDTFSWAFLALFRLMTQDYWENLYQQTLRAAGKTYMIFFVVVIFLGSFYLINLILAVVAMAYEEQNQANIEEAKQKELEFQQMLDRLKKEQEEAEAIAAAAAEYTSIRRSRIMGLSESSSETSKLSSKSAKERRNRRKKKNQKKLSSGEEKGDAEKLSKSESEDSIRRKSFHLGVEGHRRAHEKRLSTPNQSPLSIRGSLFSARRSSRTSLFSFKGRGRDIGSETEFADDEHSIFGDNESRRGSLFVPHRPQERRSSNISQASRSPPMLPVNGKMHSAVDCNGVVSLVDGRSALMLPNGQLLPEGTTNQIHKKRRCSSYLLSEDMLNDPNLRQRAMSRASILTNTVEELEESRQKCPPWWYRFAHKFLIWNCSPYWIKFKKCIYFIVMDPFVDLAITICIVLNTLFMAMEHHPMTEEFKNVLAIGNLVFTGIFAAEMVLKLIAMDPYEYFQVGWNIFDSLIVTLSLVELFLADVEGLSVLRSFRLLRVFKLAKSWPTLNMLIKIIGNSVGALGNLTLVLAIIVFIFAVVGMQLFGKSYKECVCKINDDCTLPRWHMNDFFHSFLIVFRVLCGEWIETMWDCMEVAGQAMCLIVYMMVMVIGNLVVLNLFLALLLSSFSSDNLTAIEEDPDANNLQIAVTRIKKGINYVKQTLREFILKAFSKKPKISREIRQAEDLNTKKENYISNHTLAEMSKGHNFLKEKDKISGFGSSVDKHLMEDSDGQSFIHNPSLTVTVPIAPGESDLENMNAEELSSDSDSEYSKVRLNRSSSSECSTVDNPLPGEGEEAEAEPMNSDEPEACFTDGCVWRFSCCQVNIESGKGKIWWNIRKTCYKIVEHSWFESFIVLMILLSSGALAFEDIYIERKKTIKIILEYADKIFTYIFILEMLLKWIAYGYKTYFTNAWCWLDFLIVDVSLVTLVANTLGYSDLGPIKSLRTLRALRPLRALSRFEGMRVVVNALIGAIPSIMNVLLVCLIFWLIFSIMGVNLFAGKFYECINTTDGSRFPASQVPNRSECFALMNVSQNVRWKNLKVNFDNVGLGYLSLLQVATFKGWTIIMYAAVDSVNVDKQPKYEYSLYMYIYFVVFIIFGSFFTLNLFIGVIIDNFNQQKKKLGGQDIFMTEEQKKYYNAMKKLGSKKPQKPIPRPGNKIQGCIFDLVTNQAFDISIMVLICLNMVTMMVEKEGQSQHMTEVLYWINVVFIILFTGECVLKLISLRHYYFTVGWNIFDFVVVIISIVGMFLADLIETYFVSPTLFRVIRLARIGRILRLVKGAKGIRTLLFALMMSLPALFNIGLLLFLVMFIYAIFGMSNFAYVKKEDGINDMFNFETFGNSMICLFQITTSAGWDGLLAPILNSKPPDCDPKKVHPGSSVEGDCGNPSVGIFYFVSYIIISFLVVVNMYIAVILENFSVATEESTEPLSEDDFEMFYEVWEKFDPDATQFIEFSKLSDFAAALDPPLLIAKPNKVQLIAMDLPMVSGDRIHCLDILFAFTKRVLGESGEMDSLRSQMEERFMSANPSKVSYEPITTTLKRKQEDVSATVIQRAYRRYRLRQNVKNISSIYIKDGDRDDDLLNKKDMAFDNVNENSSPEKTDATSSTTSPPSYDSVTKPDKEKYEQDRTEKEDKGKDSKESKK
pIC50 listing for selected compounds.
Scale for pIC50: -log10 of concentration given in mol/L; no unit attached.

CN(C)[C@H]1C[C@H]2C[C@H]2C[C@@H]1Nc1cc(F)c(S(=O)(=O)Nc2nccs2)cc1Cl [Example 214] :: 8.68

// compound CN(C)[C@H]1C[C@@H](c2cccc(C(F)(F)F)c2)CC[C@@H]1Oc1cc(F)c(S(=O)(=O)Nc2ccncn2)cc1Cl [Example 238] , assay hNav1.7 (Homo sapiens (Human)), pIC50 value: 8.93

With hNav1.7 (Homo sapiens (Human)) as the test system, CN1CC[C@H]1C(=O)N(C)[C@H]1CCCC[C@@H]1Nc1cc(F)c(S(=O)(=O)Nc2nccs2)cc1Cl [Example 202] showed pIC50 of 7.46

Record CN(C)[C@H]1C[C@@H](c2cccc(C(F)(F)F)c2)CC[C@@H]1Nc1cc(F)c(S(=O)(=O)Nc2ccncn2)cc1Br [Example 227] has hNav1.7 (Homo sapiens (Human)) pIC50 equal to 8.92

* * *

Target: hNav1.7 (Homo sapiens (Human))
Test: Tritiated compound binding to membranes from cells expressing hNav1.7 and the β1 subunit, competitive binding (LBA, Ex. 243A)
Conditions: 100 pM [3H]compound, 18 h, room temperature; read-out: Nav1.7 LBA (Ex. 243A) IC50
Method: Tritiated Compound Binding to Membranes Isolated from Cells that Heterologously Express hNav1.7 and the β1 Subunit Preparation of membranes containing recombinantly expressed sodium channels: Frozen recombinant cell pellets were thawed on ice and diluted to 4 times the cell pellet weight with ice cold 50 mM Tris HCl, pH 7.4 buffer. […] Protein concentrations were determined by Bradford Assay and the membranes were stored at −80° C. […]
pIC50: −log10 of the molar value. Where a name gives a salt, the structure may show the parent alone.
# cutoff 8 applies to pIC50; >= gives Fulfilled, < gives Not fulfilled

Would you please look over these solved cases?
CN(CCO)[C@H]1CCCC[C@@H]1Nc1cc(F)c(S(=O)(=O)Nc2nccs2)cc1Cl [Example 38, formate] :: Fulfilled
CNC(=O)CN(C)[C@H]1CCCC[C@@H]1Nc1cc(F)c(S(=O)(=O)Nc2nccs2)cc1Cl [Example 80, formate] :: Not fulfilled
CN(C)[C@H]1CCCC[C@@H]1Nc1cc(F)c(S(=O)(=O)Nc2nccs2)cc1C(F)(F)F :: Not fulfilled
CN(C[C@@H](O)C(F)(F)F)[C@H]1CCCC[C@@H]1Nc1cc(F)c(S(=O)(=O)Nc2nccs2)cc1Cl :: Not fulfilled

Record `CCCN(C)[C@H]1CCCC[C@@H]1Nc1cc(F)c(S(=O)(=O)Nc2nccs2)cc1Cl` ; criterion: pIC50 no lower than 8. Met? Not fulfilled
